# Tested target: T1, human IL-13 (recombinant E. coli-expressed) (human, UniProt P35225 35-146)
# T1 construct: also called hIL-13
# T1 sequence (P35225 other isoform, or with tags, fused parts or gaps limits assumed): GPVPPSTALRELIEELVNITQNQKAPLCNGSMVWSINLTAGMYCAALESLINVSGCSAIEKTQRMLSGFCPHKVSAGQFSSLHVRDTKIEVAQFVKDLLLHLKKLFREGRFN
# Protocol: ProteOn XPR36 SPR, mAb (supernatant) captured on anti-human IgG, IL13 analyte, 1:1 fit
Property: pKd
In plain terms, pKd is the concentration in mol/L turned into minus its base-10 logarithm.

Sure, the documented pKd for A1Y97PheL1 (antibody, human IgG1, kappa, V domains shown, CDRH3 variant of A1L1) VH: QVQLVQSGAEVKKPGSSVKVSCKASGFYIKDTYMHWVRQAPGQGLEWMGTIDPANGNTKYVPKFQGRVTITADESTSTAYMELSSLRSEDTAVYYCARSIFDDYHYDDYYAMDYWGQGTLVTVSS VL: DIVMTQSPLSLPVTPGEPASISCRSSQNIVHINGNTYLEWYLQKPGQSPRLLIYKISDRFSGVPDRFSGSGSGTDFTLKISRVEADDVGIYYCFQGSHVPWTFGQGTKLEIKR is 9.17
